Target: T1, soluble human Fas ligand molecule (human, UniProt P48023 130-281, limits assumed)
T1 sequence (looked up): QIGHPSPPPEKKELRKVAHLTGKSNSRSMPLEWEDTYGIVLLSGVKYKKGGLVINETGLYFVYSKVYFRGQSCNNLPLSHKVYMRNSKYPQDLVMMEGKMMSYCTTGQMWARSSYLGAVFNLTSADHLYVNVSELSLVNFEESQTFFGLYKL
Assay: cell-based or functional assay
Observable: Survival rate (%)
State the answer as a number, implicitly in %.

Q: # query: Survival rate of entry monoclonal antibody NOK2 (produced by Hybridoma NOK2, FERM BP-5045) (antibody, V domains shown, also called NOK2 antibody) VH: VQLQQSGAELVRPGTSVKMSCKAAGYTFTNYWIGWVKQRPGHGLEWIGYLYPGGLYTNYNEKFKGKATLTADTSSSTAYMQLSSLTSEDSAIYYCARYRDYDYAMDYWGQGTTVTVSS VL: DVLMTQTPLSLPVNIGDQASISCKSTKSLLNSDGFTYLGWCLQKPGQSPQLLIYLVSNRFSGVPDRFSGSGSGTDFTLKISRVEAEDLGVYYCFQSNYLPLTFGSGTKLEIKR
Ans: 105
